These data points were gathered from the supplement of paper PMC7877785.

Assay: self-splicing fitness, log relative to wild type (ln ratio); higher = more splicing; Tetrahymena group I intron in knt gene, E. coli kanamycin selection, DiMSum; sequences stand for … in CUCUCU…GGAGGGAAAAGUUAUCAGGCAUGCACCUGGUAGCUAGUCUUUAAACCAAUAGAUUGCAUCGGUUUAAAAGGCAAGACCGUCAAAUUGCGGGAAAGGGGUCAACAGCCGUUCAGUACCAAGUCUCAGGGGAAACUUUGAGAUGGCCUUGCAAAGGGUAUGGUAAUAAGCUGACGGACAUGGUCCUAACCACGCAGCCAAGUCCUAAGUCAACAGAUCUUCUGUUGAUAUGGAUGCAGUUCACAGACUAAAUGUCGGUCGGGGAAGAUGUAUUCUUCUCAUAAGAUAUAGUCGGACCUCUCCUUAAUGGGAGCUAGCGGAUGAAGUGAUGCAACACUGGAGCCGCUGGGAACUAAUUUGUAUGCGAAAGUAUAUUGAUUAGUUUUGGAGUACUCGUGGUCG;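 note: selection with 25 µg/mL kanamycin versus none on LB agar overnight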
Conditions: 30 °C
Entries and their self-splicing fitness (ln)
Measure: self-splicing fitness (ln)

* AGGGAGCAAUAUUACGCCUU | -3.04
* GUCGAGCAAUAUUACGGAGA | -2.84
* UGAAAGCAAUAUUACGAUUU | -1.08
* GACAAGCAAUAUUACGCGCA | -0.282
* UCCCAGCAAUAUUACGACGC | -2.81
* GCCAAGCAAUAUUACGUGGG | -2.97
* GGACAGCAAUAUUACGUUAU | -0.282
* AAAAAGCAAUAUUACGUCCA | -0.18

---

Assay: self-splicing fitness, log relative to wild type (ln ratio); higher = more splicing; Tetrahymena group I intron in knt gene, E. coli kanamycin selection, DiMSum; sequences stand for … in CUCUCU…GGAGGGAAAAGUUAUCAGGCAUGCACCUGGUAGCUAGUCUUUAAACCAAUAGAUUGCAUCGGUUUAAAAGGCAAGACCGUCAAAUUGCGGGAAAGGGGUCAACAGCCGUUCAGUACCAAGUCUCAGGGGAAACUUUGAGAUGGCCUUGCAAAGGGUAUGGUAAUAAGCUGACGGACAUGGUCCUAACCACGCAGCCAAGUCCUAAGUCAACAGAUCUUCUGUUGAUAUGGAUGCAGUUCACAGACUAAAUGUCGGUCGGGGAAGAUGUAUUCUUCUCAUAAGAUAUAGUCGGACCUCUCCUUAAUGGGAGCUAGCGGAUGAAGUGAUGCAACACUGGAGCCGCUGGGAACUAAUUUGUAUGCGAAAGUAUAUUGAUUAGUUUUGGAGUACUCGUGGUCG
Settings: 30 °C
Values of self-splicing fitness (ln) greater than or equal to -3 map to condition met; values below map to condition not met.

- ACAGAGCAAUAUUACGACAU: condition not met
- GUAUAGCAAUAUUACGCCUG: condition met
- CCAGAGCAAUAUUACGCAAU: condition met
- AAUGAGCAAUAUUACGCAGU: condition met
- UUAAAGCAAUAUUACGGCUU: condition met
- CACGAGCAAUAUUACGUCGG: condition met
- AGGAAGCAAUAUUACGGGCG: condition met
- CCUCAGCAAUAUUACGCCAG: condition not met

---

Experiment: self-splicing fitness, log relative to wild type (ln ratio); higher = more splicing; Tetrahymena group I intron in knt gene, E. coli kanamycin selection, DiMSum; sequences stand for … in CUCUCU…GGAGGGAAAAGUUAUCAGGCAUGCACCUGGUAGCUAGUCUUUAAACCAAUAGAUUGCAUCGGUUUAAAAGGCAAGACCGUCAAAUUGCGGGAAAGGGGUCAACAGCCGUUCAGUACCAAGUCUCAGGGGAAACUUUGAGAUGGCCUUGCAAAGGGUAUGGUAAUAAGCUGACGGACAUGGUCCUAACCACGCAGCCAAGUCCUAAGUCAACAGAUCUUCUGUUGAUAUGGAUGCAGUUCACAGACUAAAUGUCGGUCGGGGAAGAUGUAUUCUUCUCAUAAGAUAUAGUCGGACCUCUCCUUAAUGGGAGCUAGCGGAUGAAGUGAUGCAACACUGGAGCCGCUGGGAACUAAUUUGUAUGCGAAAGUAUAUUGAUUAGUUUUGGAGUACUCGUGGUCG
Details: 30 °C
Values of self-splicing fitness (ln) greater than or equal to -3 map to Fulfilled; values below map to Not fulfilled.

- GUAGAGCAAUAUUACGUCAA: Fulfilled
- CGACAGCAAUAUUACGAUCA: Fulfilled
- AAAUAGCAAUAUUACGUGCA: Fulfilled
- ACCUAGCAAUAUUACGCCCG: Fulfilled
- AGACAGCAAUAUUACGCUUC: Not fulfilled
- AGCAAGCAAUAUUACGCCAC: Not fulfilled
- CUCAAGCAAUAUUACGCGGU: Not fulfilled
- UUGAAGCAAUAUUACGGACU: Fulfilled
- UUCAAGCAAUAUUACGUAAG: Fulfilled
- CGUUAGCAAUAUUACGUCGG: Fulfilled
- CGAUAGCAAUAUUACGGUAU: Fulfilled
- UGGUAGCAAUAUUACGACAC: Fulfilled
- CCAAAGCAAUAUUACGGUGC: Not fulfilled
- GUAGAGCAAUAUUACGUUCA: Fulfilled
- CCAAAGCAAUAUUACGGUAU: Not fulfilled
- GAACAGCAAUAUUACGAUUC: Fulfilled
- UACGAGCAAUAUUACGUGAC: Not fulfilled
- AAAUAGCAAUAUUACGUUUC: Not fulfilled
- GCCUAGCAAUAUUACGGUCC: Not fulfilled
- GCCUAGCAAUAUUACGGCUC: Fulfilled
- AGAAAGCAAUAUUACGACAU: Fulfilled
- UAGGAGCAAUAUUACGUCAC: Not fulfilled
- ACCAAGCAAUAUUACGACCU: Fulfilled
- CCUAAGCAAUAUUACGGCUG: Not fulfilled
- AGGCAGCAAUAUUACGAUCG: Fulfilled
- AUGCAGCAAUAUUACGGUUU: Fulfilled
- AUCAAGCAAUAUUACGCUGC: Fulfilled
- CUAGAGCAAUAUUACGACUU: Not fulfilled
- AUGAAGCAAUAUUACGAAUC: Fulfilled
- CAACAGCAAUAUUACGUGAA: Fulfilled
- UCAUAGCAAUAUUACGAGGG: Fulfilled
- UCUGAGCAAUAUUACGUAUU: Not fulfilled
- AAAUAGCAAUAUUACGGAAG: Not fulfilled
- GUUGAGCAAUAUUACGCAUG: Fulfilled
- AUAUAGCAAUAUUACGUCGA: Fulfilled
- CCUGAGCAAUAUUACGUAGG: Fulfilled
- AUCAAGCAAUAUUACGGGUG: Fulfilled
- GCCUAGCAAUAUUACGAUUG: Fulfilled
- AUCGAGCAAUAUUACGGGUG: Not fulfilled
- UGACAGCAAUAUUACGGCCC: Fulfilled
- GUAGAGCAAUAUUACGGUCA: Fulfilled
- GACUAGCAAUAUUACGACUU: Fulfilled
- CGAAAGCAAUAUUACGGUUU: Fulfilled
- ACUUAGCAAUAUUACGACAC: Fulfilled
- CCCGAGCAAUAUUACGGGAU: Not fulfilled
- CCAUAGCAAUAUUACGCUUU: Not fulfilled
- AGGAAGCAAUAUUACGGCAG: Fulfilled
- CCCGAGCAAUAUUACGCGGU: Not fulfilled
- UCAGAGCAAUAUUACGACGG: Fulfilled
- AACUAGCAAUAUUACGUUCG: Not fulfilled
- UAACAGCAAUAUUACGCCAG: Fulfilled
- UGUUAGCAAUAUUACGGACU: Fulfilled
- UAAAAGCAAUAUUACGCCCG: Fulfilled
- GGGAAGCAAUAUUACGCCAU: Not fulfilled
- AGGUAGCAAUAUUACGUAAG: Fulfilled
- CACCAGCAAUAUUACGUAUU: Not fulfilled
- CUAAAGCAAUAUUACGGGUA: Not fulfilled
- CAUGAGCAAUAUUACGGGUA: Fulfilled
- UGCGAGCAAUAUUACGGUAU: Not fulfilled
- AAGAAGCAAUAUUACGAUAU: Fulfilled
- AGCUAGCAAUAUUACGGUGU: Fulfilled
- UGGUAGCAAUAUUACGAUCA: Fulfilled

---

Test: self-splicing fitness, log relative to wild type (ln ratio); higher = more splicing; Tetrahymena group I intron in knt gene, E. coli kanamycin selection, DiMSum; sequences stand for … in CUCUCU…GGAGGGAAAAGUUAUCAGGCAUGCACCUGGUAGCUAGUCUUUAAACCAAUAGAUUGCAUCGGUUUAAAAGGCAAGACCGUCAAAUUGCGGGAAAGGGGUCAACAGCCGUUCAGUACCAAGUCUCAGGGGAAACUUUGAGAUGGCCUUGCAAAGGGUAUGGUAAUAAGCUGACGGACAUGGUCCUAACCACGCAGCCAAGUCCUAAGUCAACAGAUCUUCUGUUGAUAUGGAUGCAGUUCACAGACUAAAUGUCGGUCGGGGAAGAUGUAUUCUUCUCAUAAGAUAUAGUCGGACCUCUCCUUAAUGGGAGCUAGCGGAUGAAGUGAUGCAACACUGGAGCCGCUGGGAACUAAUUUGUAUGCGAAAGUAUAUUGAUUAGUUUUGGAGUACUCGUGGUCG
Conditions: 30 °C
Would you mind classing the entries by self-splicing fitness (ln)? Ranges: low bracket (below -3), middle bracket (-3 to below -2), high bracket (-2 or more)

• GUUUAGCAAUAUUACGGCUG = high bracket
• ACACAGCAAUAUUACGGAAC = low bracket
• CACCAGCAAUAUUACGCCCA = high bracket
• GGAUAGCAAUAUUACGACCU = high bracket
• AAAUAGCAAUAUUACGAAGG = middle bracket
• CAUAAGCAAUAUUACGCUGC = low bracket
• GUUGAGCAAUAUUACGACAA = middle bracket
• GCCUAGCAAUAUUACGCGUC = high bracket
• GUUAAGCAAUAUUACGCUUU = low bracket
• AUUCAGCAAUAUUACGUGGC = low bracket
• UCCGAGCAAUAUUACGUUGU = middle bracket
• ACGCAGCAAUAUUACGUGGU = low bracket
• CGACAGCAAUAUUACGCGGA = middle bracket
• CUACAGCAAUAUUACGCUGC = middle bracket
• AGGAAGCAAUAUUACGCAGG = low bracket
• CCACAGCAAUAUUACGAGCU = low bracket
• GGUAAGCAAUAUUACGUGGG = low bracket
• CGUCAGCAAUAUUACGCCUA = middle bracket
• CCGAAGCAAUAUUACGAGAU = low bracket
• UAGCAGCAAUAUUACGAAAA = middle bracket
• CGUGAGCAAUAUUACGUUGA = middle bracket
• UAUCAGCAAUAUUACGUUUG = high bracket
• AGGUAGCAAUAUUACGGGGU = low bracket
• UCACAGCAAUAUUACGGGUU = low bracket
• GCUGAGCAAUAUUACGGUAU = middle bracket
• CUCAAGCAAUAUUACGAGGA = high bracket
• GCGUAGCAAUAUUACGGACG = low bracket
• UCGCAGCAAUAUUACGCCGA = high bracket
• AACAAGCAAUAUUACGGUUA = high bracket
• CGUGAGCAAUAUUACGUGCA = high bracket
• GCAUAGCAAUAUUACGUCCU = high bracket
• AAGGAGCAAUAUUACGGUGA = middle bracket
• CUGCAGCAAUAUUACGUUGA = low bracket
• AUUCAGCAAUAUUACGUUAU = high bracket
• GGGCAGCAAUAUUACGAUGG = low bracket
• GACGAGCAAUAUUACGAUUG = low bracket
• CCGCAGCAAUAUUACGGCCC = low bracket
• CGCAAGCAAUAUUACGUUAA = middle bracket
• AGUCAGCAAUAUUACGUGGG = low bracket
• UGUCAGCAAUAUUACGUCGG = high bracket
• GUAUAGCAAUAUUACGAAGG = low bracket
• GAGUAGCAAUAUUACGCUGU = low bracket
• GUAGAGCAAUAUUACGUGGG = middle bracket
• UUCAAGCAAUAUUACGUCCG = high bracket
• GGCCAGCAAUAUUACGGUAU = high bracket
• GUUGAGCAAUAUUACGUAGC = high bracket
• CCACAGCAAUAUUACGUAAA = low bracket
• GAAAAGCAAUAUUACGACCU = high bracket
• AUGUAGCAAUAUUACGAUUC = middle bracket
• AGGUAGCAAUAUUACGGGUU = middle bracket
• ACUAAGCAAUAUUACGGCUG = high bracket
• AGGGAGCAAUAUUACGCCCG = low bracket
• GUAAAGCAAUAUUACGCAAG = middle bracket
• CUAAAGCAAUAUUACGGUGG = high bracket
• CAAGAGCAAUAUUACGAGGU = low bracket
• UAGUAGCAAUAUUACGGCUG = high bracket
• UGCAAGCAAUAUUACGGCAG = high bracket
• CCCAAGCAAUAUUACGCUAU = low bracket
• ACCUAGCAAUAUUACGUGGU = low bracket
• GUUCAGCAAUAUUACGAGAU = middle bracket
